Each entry below carries its recorded IC50.
molecular target: human NaV 1.7 (Homo sapiens); assay: E-VIPR optical membrane potential assay with electrical stimulation; details: sodium channel inhibition; read-out: Binned Activity Data (IC50)

Example entries and their recorded answers appear below.
COc1cc(C(=O)N2CCC3(CC2)Oc2ccccc2-c2c3cnn2C)ccc1OC[C@@H](C)OC: ≤ 2000 nM
COc1c(C)cc(C(=O)N2CCC3(CC2)Oc2ccccc2-c2c3cnn2C)cc1C: ≤ 2000 nM
CC(C)[S+]([O-])c1ccc(C(=O)N2CCC3(CC2)Oc2ccccc2-c2c3cnn2C)cc1 (stereo not shown): 2000 to 5000 nM

Determine its reported IC50: `CCn1ncc2c1-c1cc(F)ccc1OC21CCN(C(=O)c2ccccc2OC(F)F)CC1`
≤ 2000 nM

Determine its reported IC50: `CCn1ncc2c1-c1cc(F)ccc1OC21CCN(C(=O)c2ccc(OC(C)C)c(C)c2)CC1`
≤ 2000 nM

Determine its reported IC50: `Cc1cc(C(=O)N2CCC3(CC2)Oc2ccccc2-n2c(C(F)(F)F)ccc23)ccc1S(=O)(=O)N(C)C`
≤ 2000 nM

Determine its reported IC50: `COc1ccc(C(=O)N2CCC3(CC2)Oc2cc(Cl)ccc2-n2c(C#N)ccc23)cc1C(F)(F)F`
≤ 2000 nM

Determine its reported IC50: `CC(C)NS(=O)(=O)c1ccc(C(=O)N2CCC3(CC2)Oc2ccc(F)cc2-c2nn(C)cc23)cc1`
≤ 2000 nM

Determine its reported IC50: `COc1ccccc1C(=O)N1CCC2(CC1)Oc1cc(Cl)ccc1-n1cccc12`
≤ 2000 nM

Determine its reported IC50: `COc1cnccc1C(=O)N1CCC2(CC1)Oc1ccccc1-c1c2cnn1C`
> 5000 nM

Determine its reported IC50: `CC(C)NS(=O)(=O)c1ccc(C(=O)N2CCC3(CC2)Oc2ccccc2-n2c(C#N)ccc23)cc1`
≤ 2000 nM

Determine its reported IC50: `Cn1ncc2c1-c1cc(F)ccc1OC21CCN(C(=O)c2ccccc2OC(F)F)CC1`
≤ 2000 nM

---

molecular target: human NaV 1.7 (Homo sapiens, UniProt Q15858); assay: E-VIPR optical membrane potential assay with electrical stimulation; assay type: cell-based; settings: sodium channel inhibition; read-out: Binned Activity Data (IC50)
Sequence (Q15858 whole entry): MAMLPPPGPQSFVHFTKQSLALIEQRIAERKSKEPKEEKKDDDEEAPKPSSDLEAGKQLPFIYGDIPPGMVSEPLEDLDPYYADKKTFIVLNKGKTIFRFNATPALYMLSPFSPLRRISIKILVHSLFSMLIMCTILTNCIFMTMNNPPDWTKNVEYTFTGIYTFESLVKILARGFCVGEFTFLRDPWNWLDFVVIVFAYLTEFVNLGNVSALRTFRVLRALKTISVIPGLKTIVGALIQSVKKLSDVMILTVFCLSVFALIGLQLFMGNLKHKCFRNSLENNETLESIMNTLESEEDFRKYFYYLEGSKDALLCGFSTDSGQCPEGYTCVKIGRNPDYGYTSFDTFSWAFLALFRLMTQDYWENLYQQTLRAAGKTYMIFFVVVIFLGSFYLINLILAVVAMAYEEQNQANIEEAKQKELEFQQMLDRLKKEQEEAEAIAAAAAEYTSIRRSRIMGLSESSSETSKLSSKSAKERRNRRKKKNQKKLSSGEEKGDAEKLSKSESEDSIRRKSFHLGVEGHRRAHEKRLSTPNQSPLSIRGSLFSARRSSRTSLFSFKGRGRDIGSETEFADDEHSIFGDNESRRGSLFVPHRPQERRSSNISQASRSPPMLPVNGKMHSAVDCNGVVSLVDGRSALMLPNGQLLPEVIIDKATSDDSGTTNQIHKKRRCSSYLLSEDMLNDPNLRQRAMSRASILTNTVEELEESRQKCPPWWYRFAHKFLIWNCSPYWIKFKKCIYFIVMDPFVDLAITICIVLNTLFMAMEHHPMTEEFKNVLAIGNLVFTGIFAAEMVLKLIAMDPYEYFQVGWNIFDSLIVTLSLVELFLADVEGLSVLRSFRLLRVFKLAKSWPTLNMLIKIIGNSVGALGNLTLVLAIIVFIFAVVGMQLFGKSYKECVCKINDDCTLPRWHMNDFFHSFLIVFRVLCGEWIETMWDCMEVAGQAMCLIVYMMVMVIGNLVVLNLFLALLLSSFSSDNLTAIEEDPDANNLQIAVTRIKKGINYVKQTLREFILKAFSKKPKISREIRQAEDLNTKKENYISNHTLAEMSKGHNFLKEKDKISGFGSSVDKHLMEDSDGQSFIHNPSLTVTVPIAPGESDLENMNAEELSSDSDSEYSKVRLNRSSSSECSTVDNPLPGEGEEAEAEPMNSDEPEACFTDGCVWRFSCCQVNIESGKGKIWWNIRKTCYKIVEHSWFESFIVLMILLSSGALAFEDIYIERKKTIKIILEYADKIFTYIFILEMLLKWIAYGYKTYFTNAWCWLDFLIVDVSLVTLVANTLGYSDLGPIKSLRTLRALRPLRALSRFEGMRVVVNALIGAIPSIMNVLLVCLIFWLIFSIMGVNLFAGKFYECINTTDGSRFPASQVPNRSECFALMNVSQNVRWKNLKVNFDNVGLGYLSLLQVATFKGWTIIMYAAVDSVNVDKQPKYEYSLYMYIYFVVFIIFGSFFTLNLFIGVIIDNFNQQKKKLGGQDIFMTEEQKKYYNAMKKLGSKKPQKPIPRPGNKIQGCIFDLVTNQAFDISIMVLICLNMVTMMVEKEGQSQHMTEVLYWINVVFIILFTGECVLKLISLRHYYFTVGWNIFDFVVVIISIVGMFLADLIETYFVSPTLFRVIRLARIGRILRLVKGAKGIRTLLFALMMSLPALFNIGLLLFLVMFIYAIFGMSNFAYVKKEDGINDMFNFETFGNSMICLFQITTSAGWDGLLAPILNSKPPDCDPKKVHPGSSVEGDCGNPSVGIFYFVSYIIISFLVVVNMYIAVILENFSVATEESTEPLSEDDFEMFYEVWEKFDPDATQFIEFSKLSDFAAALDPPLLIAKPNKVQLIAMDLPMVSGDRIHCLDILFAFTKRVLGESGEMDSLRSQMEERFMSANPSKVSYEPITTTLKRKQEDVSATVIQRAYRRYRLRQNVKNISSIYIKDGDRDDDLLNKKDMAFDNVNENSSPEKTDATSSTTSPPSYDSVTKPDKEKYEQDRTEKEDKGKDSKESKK
pIC50: −log10 of the molar value.
ASSAY_READOUT: pIC50

O=C(c1cccc(Cl)c1)N1CCC2(CC1)Oc1cc(Cl)ccc1-n1cccc12: ≥ 5.70
COc1cc(C(=O)N2CCC3(CC2)Oc2cc(F)ccc2-n2cccc23)ccc1OCC(N)=O: ≥ 5.70
Cc1cccc(C(=O)N2CCC3(CC2)Oc2ccccc2-c2c3cnn2C)c1O: 5.30 to 5.70
COCCOc1ccc(C(=O)N2CCC3(CC2)Oc2ccccc2-n2c(C(C)=O)ccc23)cc1OC: ≥ 5.70
Cn1ncc2c1-c1ccccc1OC21CCN(C(=O)c2ccc(OC(C)(C)C)cc2)CC1: 5.30 to 5.70

Determine its reported pIC50: `CC(C)Oc1ccc(C(=O)N2CCC3(CC2)Oc2ccccc2-n2cccc23)cc1C(F)(F)F`
≥ 5.70

Determine its reported pIC50: `N#Cc1ccc2n1-c1ccccc1OC21CCN(C(=O)c2ccc(F)c(Cl)c2)CC1`
< 5.30

Determine its reported pIC50: `COc1ccc(OC)c(C(=O)N2CCC3(CC2)Oc2ccccc2-c2c3cnn2C)c1`
5.30 to 5.70

---

target: UniProt:Q15858; assay: E-VIPR optical membrane potential assay with electrical stimulation; conditions: sodium channel inhibition; read-out: Binned Activity Data (IC50)
pIC50: −log10 of the molar value.
ASSAY_READOUT: pIC50

Example entries and their recorded answers appear below.
Cc1ccc(C(=O)N2CCC3(CC2)Oc2ccccc2-c2c3cnn2C)cc1C: 5.30 to 5.70
Cc1cc(C(=O)N2CCC3(CC2)Oc2ccccc2-n2cccc23)ccc1C#N: ≥ 5.70

Determine its reported pIC50: `Cn1ncc2c1-c1ccccc1OC21CCN(C(=O)c2ccnc(N3CCCCC3)c2)CC1`
≥ 5.70

Determine its reported pIC50: `CCOc1ncccc1C(=O)N1CCC2(CC1)Oc1ccccc1-n1c(C(F)(F)F)ccc12`
≥ 5.70

Determine its reported pIC50: `Cc1cc(C)c(C(=O)N2CCC3(CC2)Oc2cc(Cl)ccc2-n2cccc23)c(=O)[nH]1`
5.30 to 5.70

---

Each entry below carries its recorded pIC50.
biological target: human NaV 1.7 (Homo sapiens); assay: E-VIPR optical membrane potential assay with electrical stimulation; type: cell-based; details: sodium channel inhibition; read-out: Binned Activity Data (IC50)
pIC50: −log10 of the molar value.

Example entries and their recorded answers appear below.
Cc1cc(C(=O)N2CCC3(CC2)Oc2cccnc2-c2c3cnn2C)ccc1OC(C)C [Compound 271]: < 5.30
Cn1ncc2c1-c1ccc(F)cc1OC21CCN(C(=O)c2ccccc2OC(F)F)CC1: ≥ 5.70
COc1cc(C(=O)N2CCC3(CC2)Oc2cc(Cl)ccc2-n2cccc23)ccc1C1(OC)COC1: ≥ 5.70

Attention now shifts to the item below.
Determine its reported pIC50: `Cn1ncc2c1-c1ccccc1OC21CCN(C(=O)c2cccc3c2CCO3)CC1`
< 5.30

---

molecular target: human NaV 1.7 (Homo sapiens); assay: E-VIPR optical membrane potential assay with electrical stimulation; details: sodium channel inhibition; read-out: Binned Activity Data (IC50)
ASSAY_READOUT: IC50

Example entries and their recorded answers appear below.
CNC(=O)c1ccc2n1-c1ccc(Cl)cc1OC21CCN(C(=O)c2ccc(OC(C)C)c(C)c2)CC1 [Compound 245]: 2 to 5 µM
CC1Oc2c(C(=O)N3CCC4(CC3)Oc3ccccc3-c3c4cnn3C)cccc2C1C (centres unmarked) [Compound 56]: ≤ 2 µM
Cn1ccc(C(=O)N2CCC3(CC2)Oc2cc(Cl)ccc2-n2c(C(F)(F)F)ccc23)cc1=O [Compound 250]: 2 to 5 µM
CCn1ncc2c1-c1ccccc1OC21CCN(C(=O)c2ccccc2OC(F)F)CC1 [Compound 167]: ≤ 2 µM
COc1c(F)cccc1C(=O)N1CCC2(CC1)Oc1cc(Cl)ccc1-c1c2cnn1C [Compound 328]: ≤ 2 µM

Determine its reported IC50: COc1cc(C(=O)N2CCC3(CC2)Oc2ccccc2-n2cccc23)ccc1C(C)(C)C [Compound 573]
≤ 2 µM

Determine its reported IC50: O=C(c1ccccc1OC(F)F)N1CCC2(CC1)Oc1cc(Cl)ccc1-n1cccc12 [Compound 21]
≤ 2 µM

Determine its reported IC50: COc1cc(C(=O)N2CCC3(CC2)Oc2ccccc2-c2c3cnn2CC(F)(F)F)ccc1OCCC(C)C [Compound 785]
≤ 2 µM

---

biological target: UniProt Q15858; assay: E-VIPR optical membrane potential assay with electrical stimulation; conditions: sodium channel inhibition; read-out: Binned Activity Data (IC50)
ASSAY_READOUT: IC50

Example entries and their recorded answers appear below.
Cc1cc(C(=O)N2CCC3(CC2)Oc2ccccc2-c2c3ncn2C)ccc1OC(C)C [Compound 583]: ≤ 2000 nM
CCc1ccc(C(=O)N2CCC3(CC2)Oc2cc(C#N)ccc2-n2cccc23)cc1OC [Compound 511]: ≤ 2000 nM

Determine its reported IC50: COc1cccc(F)c1C(=O)N1CCC2(CC1)Oc1ccccc1-n1c2ccc1S(C)(=O)=O [Compound 614]
2000 to 5000 nM

Determine its reported IC50: O=C(c1ccccc1OC(F)F)N1CCC2(CC1)Oc1ccccc1-c1c2cnn1C(F)F [Compound 889]
≤ 2000 nM

Determine its reported IC50: Cn1ncc2c1-c1ccccc1OC21CCN(C(=O)c2ccccc2OCCO)CC1 [Compound 771]
≤ 2000 nM

Determine its reported IC50: COc1ncccc1C(=O)N1CCC2(CC1)Oc1ccccc1-c1c2cnn1C [Compound 642]
2000 to 5000 nM

Determine its reported IC50: O=C(c1ccccc1OC(F)F)N1CCC2(CC1)Oc1ccccc1-c1c2cnn1C(F)(F)F [Compound 337]
≤ 2000 nM

Determine its reported IC50: Cn1ncc2c1-c1ccccc1OC21CCN(C(=O)c2cccc3c2cnn3C)CC1 [Compound 867]
≤ 2000 nM

---

target: human NaV 1.7 (Homo sapiens, UniProt Q15858); test: E-VIPR optical membrane potential assay with electrical stimulation; settings: sodium channel inhibition; read-out: Binned Activity Data (IC50)
ASSAY_READOUT: IC50

Cn1ccc(C(=O)N2CCC3(CC2)Oc2cc(Cl)ccc2-n2cccc23)cc1=O: 2 to 5 µM
Cn1cc2c(n1)-c1cc(F)ccc1OC21CCN(C(=O)c2ccccc2OC(F)(F)F)CC1: ≤ 2 µM
CC(C)(O)c1ccc(C(=O)N2CCC3(CC2)Oc2ncccc2-n2c(C(F)(F)F)ccc23)cc1: ≤ 2 µM
CC(C)(C(=O)O)S(=O)(=O)c1ccc(C(=O)N2CCC3(CC2)Oc2ccccc2-n2c(C(F)(F)F)ccc23)cc1: 2 to 5 µM
Cc1nc(C(=O)N2CCC3(CC2)Oc2ccccc2-c2nn(C)cc23)ccc1OC(C)C: ≤ 2 µM
Cc1nc(C(=O)N2CCC3(CC2)Oc2ccccc2-n2c(C(F)(F)F)ccc23)ccc1OC(C)C: ≤ 2 µM
CC(=O)c1ccc2n1-c1ccccc1OC21CCN(C(=O)c2ccc(OC(C)C)c(C)c2)CC1: ≤ 2 µM
Cn1ncc2c1-c1ccccc1OC21CCN(C(=O)c2ccc3c(c2)CC(C)(C)O3)CC1: 2 to 5 µM

Determine its reported IC50: `N#Cc1cc(F)cc(C(=O)N2CCC3(CC2)Oc2cc(Cl)ccc2-n2cccc23)c1`
≤ 2 µM

Determine its reported IC50: `COc1cc(C(=O)N2CCC3(CC2)Oc2ccccc2-n2c(C#N)ccc23)ccc1OC(C)C`
≤ 2 µM

Determine its reported IC50: `Cc1nc2cccc(C(=O)N3CCC4(CC3)Oc3cc(Cl)ccc3-n3cccc34)c2o1`
≤ 2 µM
